protocol-text: Metal chelating activity of compound assessed as compound-Cu2+ complex formation at 0.1 mM after 10 mins in presence of CuSO4.5H2O by complexometric indicator murexide based UV-Vis spectrophotometric analysis
Type: physicochemical
condition-description: 100 µM
Reported Activity by item:
observation-type: Activity (%)

• Cl.Cl.NCC(N)CCCNC(=O)CCn1cccc(O)c1=O (stereo unspecified) = 40.8
• Cl.Cl.NCC(N)CCC(=O)N1CCN(C(=O)CCn2cccc(O)c2=O)CC1 (stereo unspecified) = 36.03
• Cl.Cl.NCC(N)CCCCNC(=O)CCn1cccc(O)c1=O (stereo unspecified) = 41.17
• CCCCN1CCN(C(=O)C(N)CN)CC1.Cl.Cl (stereo unspecified) = 16.55
• COc1cc(/C=C/C(=O)N2CCN(C(=O)CCC(N)CN)CC2)ccc1O.Cl.Cl (stereo unspecified) = 28.75
• Cl.Cl.NCC(N)CCC(=O)NCCCn1cccc(O)c1=O (stereo unspecified) = 42.39
• CC(C)(C)OC(=O)NCC(CCCCNC(=O)CCn1cccc(O)c1=O)NC(=O)OC(C)(C)C.Cl.Cl (stereo unspecified) = 34.48
• Cl.Cl.NCC(N)CCCCNC(=O)CCn1cccc(OCc2ccccc2)c1=O (stereo unspecified) = 21.41
• Cc1c(O)c(=O)ccn1CCC(=O)NCCCCC(N)CN.Cl.Cl (stereo unspecified) = 52.98
• Cl.Cl.NCC(N)CCC(=O)N1CCN(C(=O)c2cc(O)c(O)c(O)c2)CC1 (stereo unspecified) = 29.96
• NCCN = 69.82
